inhibition overview
# system: Perilipin-1 (Homo sapiens) + 1-acylglycerol-3-phosphate O-acyltransferase ABHD5 (Homo sapiens) (UniProt O60240+Q8WTS1)
# Sequence (O60240 whole entry, looked up): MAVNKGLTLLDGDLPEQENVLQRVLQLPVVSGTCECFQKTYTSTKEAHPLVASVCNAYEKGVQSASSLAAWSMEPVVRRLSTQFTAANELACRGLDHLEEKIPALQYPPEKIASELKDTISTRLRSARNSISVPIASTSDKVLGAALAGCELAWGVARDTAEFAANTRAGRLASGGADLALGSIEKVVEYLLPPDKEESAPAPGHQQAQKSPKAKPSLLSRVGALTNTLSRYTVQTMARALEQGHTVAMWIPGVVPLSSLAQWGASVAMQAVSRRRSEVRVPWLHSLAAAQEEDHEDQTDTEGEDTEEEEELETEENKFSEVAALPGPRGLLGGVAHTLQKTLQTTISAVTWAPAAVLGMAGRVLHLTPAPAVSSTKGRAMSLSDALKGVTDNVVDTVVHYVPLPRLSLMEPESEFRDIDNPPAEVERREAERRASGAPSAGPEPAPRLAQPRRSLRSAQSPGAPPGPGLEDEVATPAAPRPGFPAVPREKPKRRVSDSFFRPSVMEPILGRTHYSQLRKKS
# Sequence (Q8WTS1 whole entry, looked up): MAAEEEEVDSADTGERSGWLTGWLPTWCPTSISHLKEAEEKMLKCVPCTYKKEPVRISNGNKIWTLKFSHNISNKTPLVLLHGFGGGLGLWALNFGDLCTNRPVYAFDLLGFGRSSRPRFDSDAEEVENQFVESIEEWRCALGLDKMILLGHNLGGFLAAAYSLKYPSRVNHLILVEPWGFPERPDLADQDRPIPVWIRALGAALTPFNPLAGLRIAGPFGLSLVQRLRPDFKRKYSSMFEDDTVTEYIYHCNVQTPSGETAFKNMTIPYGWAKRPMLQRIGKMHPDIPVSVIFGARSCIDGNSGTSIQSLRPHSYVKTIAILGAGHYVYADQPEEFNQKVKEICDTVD
# measurement.protocol: blockers of ABHD5 binding to perilipin-1 – cell lysate, split luciferase complementation, luminescence, NIH validation set, pilot screen (AID 493027);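 note: 0% = DMSO wells with the 100% control not disclosed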
# assay.context: split G. princeps luciferase complementation, 4 h, at 7.9 µM, active compounds read high
The whole screen tested about 2,000 compounds, of which about 45 (2%) were called active. The sample holds actives, similar compounds and a random draw of the others, so the mix is not that of the screen.
measured.quantity: inhibition (%)

compound	observed.result
O=C1CCCC2=C1C(c1cccnc1)Nc1ccccc1N2 (stereo not drawn)	-3.96
O=c1c2ccccc2nc(/C=C/c2ccc3c(c2)OCO3)n1-c1ccccc1	1.81
CC(C)NC(C)C(=O)c1ccc2ccccc2c1 (stereo not drawn)	-0.73
Cc1c2ccncc2c(C)c2c1[nH]c1ccccc12	-2.7
CCOC(=O)c1cncn1C(C)c1ccccc1 (stereo not drawn)	1.91
Cc1ccc(/C=C2/C(=O)NC(=O)N(C)C2=O)cc1	-3.1
CC12CN3CC(C)(CN(C1)C3c1cccs1)C2=O (stereo not drawn)	-10.9
Cc1ccc(-n2c(C)cc(/C=C3/C(=O)NC(=O)N(C)C3=O)c2C)cc1	38.2
